target-or-test-system: Thioredoxin reductase (Homo sapiens, UniProt Q16881+Q9NNW7+Q86VQ6)
method-description: Inhibition of thioredoxin-1/thioredoxin reductase system
Assay type: functional
measured-endpoint: IC50 (µM)

O=C1CCCC2=C1C1(Oc3cccc4cccc(c34)O1)C1OC1C2=O (centres undefined); 12.2
O=C1C=CC2(Oc3cccc4cccc(c34)O2)c2cccc(OCc3ccc(-c4cccc(C(F)(F)F)c4)o3)c21; 42.4
O=C1C=CC2(Oc3cccc4cccc(c34)O2)c2cccc(OCc3ccc(-c4ccc(Br)cc4)o3)c21; 10.2
O=C1C=C[C@H](O)[C@@]23O[C@@]12C1(Oc2cccc4cccc(c24)O1)[C@@H]1O[C@@H]1[C@@H]3O; 4.5
C#CCOc1cccc2c1C(=O)C=CC21Oc2cccc3cccc(c23)O1; 13.4
C=C(C)COc1cccc2c1C(=O)C=CC21Oc2cccc3cccc(c23)O1; 4.8

(a) O=C1C=CC2(Oc3cccc4cccc(c34)O2)C2=C1CCCC2=O
(b) O=C1C=CC2(Oc3cccc4cccc(c34)O2)C2=C1[C@@H](O)C1C3C=CC(C3)C1[C@H]2O (some centres undefined)
(c) O=C1C=CC2(Oc3cccc4cccc(c34)O2)c2cccc(OCc3ccccn3)c21
List these items ordered by IC50, big to small. The labels, placed in the requested order, form the answer.
c, b, a

###

# IC50 per entry
target-or-test-system: Thioredoxin reductase (Homo sapiens, UniProt Q16881+Q9NNW7+Q86VQ6)
method-description: Inhibition of thioredoxin reductase
Type: protein assay

O=C1C=CC2(Oc3cccc4cccc(c34)O2)c2cccc(OCc3cccnc3)c21; > 50 µM

Briefly, IC50 measured for `O=C1C=CC2(Oc3cccc4cccc(c34)O2)c2cccc(OCc3ccc(-c4ccccc4C(F)(F)F)o3)c21` : > 50 µM

Briefly, IC50 measured for `O=C1C=CC2(Oc3cccc4cccc(c34)O2)c2cccc(OCc3ccccn3)c21` : > 50 µM

Briefly, IC50 measured for `O=C1C=CC2(Oc3cccc4cccc(c34)O2)c2cccc(OCc3ccc(-c4cccc(Cl)c4)o3)c21` : > 50 µM

Briefly, IC50 measured for `O=C1C=CC2(Oc3cccc4cccc(c34)O2)c2cccc(OCc3ccc(-c4ccc(Br)cc4)o3)c21` : 20.1 µM

###

method-description: Compound was tested for its ability to inhibit thioredoxin-1/thioredoxin reductase system
Parameters: species or system Homo sapiens
measured-endpoint: IC50

Briefly, IC50 measured for `CC(C)=CCC/C(C)=C/COc1cccc2c1C(=O)C=CC21Oc2cccc3cccc(c23)O1` : > 50 µM

###

target-or-test-system: Thioredoxin reductase (Homo sapiens, UniProt Q16881+Q9NNW7+Q86VQ6)
method-description: Inhibition of thioredoxin-1/thioredoxin reductase system
Format: functional
measured-endpoint: IC50 (µM)

(I) C=CCOc1cccc2c1C(=O)C=CC21Oc2cccc3cccc(c23)O1
(II) O=C1C=CC2(OCCO2)c2cccc(O)c21
(III) COc1cccc2c1C(=O)C=CC21OCCCO1
(IV) O=C1[C@@H]2O[C@@H]2C2(Oc3cccc4cccc(c34)O2)[C@]23O[C@]12CCCC3=O
(V) O=C1C=CC2(Oc3cccc4cccc(c34)O2)c2cccc(O)c21
Order the entries by their reported IC50, beginning at the minimum. The labels, placed in the requested order, form the answer.
V, II, IV, I, III
(V: 0.35 µM, II: 3.4 µM, IV: 13.5 µM, I: 23.2 µM, III: 40.2 µM)

(1) O=C1C=CC2(Oc3cccc4cccc(c34)O2)c2cccc(OCc3ccoc3)c21
(2) O=C1C=CC2(Oc3cccc4cccc(c34)O2)C23OC12CCCC3=O (stereo unspecified)
Lab note: check whether 1 or 2 has the lower measured IC50. Please reply using the label of the selected record.
1
(1: 23.2 µM, 2: 44 µM)

Source: ChEMBL document CHEMBL1133980
